These data points were gathered from PubChem BioAssay.

System: Plasmodium falciparum Sir2 (PF13_0152, Sir2A)
PROTOCOL TEXT: Plasmodium falciparum Sir2A binding compounds – biochemical, small-molecule microarray, 635 nm fluorescence, primary screen (AID 1098);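 further: score merges spot fluorescence intensity with its signal-to-noise ratio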
CONDITION: fluorescence 635 nm, higher = more signal
// reported composite z-score for each item listed
Reply with just the number.

Observe how each entry below is paired with its result.
>>> value_reported("COCCOC(=O)N1C(=O)[C@@]2(c3cc(C#CC4(O)CCCCCC4)ccc31)[C@H](c1ccc(O)cc1)N1[C@H](c3ccccc3)[C@H](c3ccccc3)OC(=O)[C@H]1[C@@H]2C(=O)N1CCc2cc(OC)c(OC)cc2C1")
1.23
>>> value_reported("COC(=O)[C@@]1(Cc2ccc(F)cc2)[C@H]2c3cc(C(=O)N(C)C)n(CCCNc4ccc(C(F)(F)F)cc4Cl)c3C[C@H]2CN1C(=O)c1ccccc1")
1.08
>>> value_reported("C=CC[C@@]1(C(N)=O)N=C(c2ccc(OCCCO)cc2)O[C@@H]1c1ccccc1N=[N+]=[N-]")
1.61
>>> value_reported("O=C1OCC=C[C@H]2OC34C=CCN(CCN5CCOCC5)C(=O)[C@H]3N(CCCCCCO)C(=O)[C@@H]4[C@@H]12 (stereo partly specified)")
1.18
>>> value_reported("NC(=O)NCC#Cc1ccc2c(c1)[C@]1(C(=O)N2)[C@H](c2ccccc2OCCO)N2[C@H](c3ccccc3)[C@H](c3ccccc3)OC(=O)[C@H]2[C@@H]1C(=O)N1CCCCCCC1")
1.68

Switching to the query record.
Query: Report value only: composite z-score, Plasmodium falciparum Sir2 (PF13_0152, Sir2A), `C=CC[C@@]1(C(=O)OC)N=C(c2ccc(OCCCO)cc2)O[C@@H]1c1ccccc1CN=[N+]=[N-]`
Result: 1.55
